biological target: DRB5*01:01 (Homo sapiens, UniProt P01903+Q30154); experiment: biochemical
Where a SMILES comes first, the peptide text is derived from it.

Molecule: CC[C@H](C)[C@H](NC(=O)[C@H](CCC(=O)O)NC(=O)[C@@H](N)CCCCN)C(=O)N[C@H](C(=O)N[C@H](C(=O)N[C@@H](C)C(=O)N[C@H](C(=O)N[C@@H](CO)C(=O)N[C@@H](CCCNC(=N)N)C(=O)N[C@H](C(=O)N[C@@H](CC(C)C)C(=O)N[C@@H](CO)C(=O)N[C@@H](Cc1ccc(O)cc1)C(=O)N[C@@H](Cc1ccc(O)cc1)C(=O)N[C@@H](CCCCN)C(=O)O)[C@@H](C)O)[C@@H](C)O)C(C)C)[C@@H](C)O [Mem_34] (H-KEITVATSRTLSYYK-OH)
IC50 / nM: 41

* * *

biological target: DRB1*09:01 (Homo sapiens, UniProt P01903+P01911, A100R/A103E/D57H/D86V/F55Y/F60I/F76Y/I96F/K127E/L162R/M171V/P40D/Q125H/Q99R/R33Q/R42F/S133A/S66N/T210M/V115G/W38K/Y107V/Y59G/Y89S); test: biochemical
pIC50: −log10 of the molar value. Where a SMILES comes first, the peptide text is derived from it.
Recorded measurements of pIC50, one per entry
Property name: pIC50

Compound: CC[C@H](C)[C@H](NC(=O)[C@H](CCC(N)=O)NC(=O)[C@H](CC(=O)O)NC(=O)[C@@H](N)CC(=O)O)C(=O)NCC(=O)N[C@@H](Cc1ccc(O)cc1)C(=O)N[C@@H](Cc1ccc(O)cc1)C(=O)N[C@@H](CCCNC(=N)N)C(=O)N[C@@H](CCCNC(=N)N)C(=O)N[C@@H](C)C(=O)N[C@H](C(=O)N[C@@H](CCCNC(=N)N)C(=O)N[C@@H](CCCNC(=N)N)C(=O)N[C@H](C(=O)N[C@@H](CCCNC(=N)N)C(=O)O)[C@@H](C)CC)[C@@H](C)O [Ncl_P17] (H-DDQIGYYRRATRRIR-OH)
Property name: pIC50
Assay value: 6.25
//
Compound: CSCC[C@H](NC(=O)[C@H](CCCCN)NC(=O)[C@H](CO)NC(=O)[C@H](CCC(=O)O)NC(=O)[C@H](CC(C)C)NC(=O)[C@H](CCC(N)=O)NC(=O)[C@H](CC(N)=O)NC(=O)[C@H](CC(C)C)NC(=O)[C@H](CCCNC(=N)N)NC(=O)[C@H](CC(=O)O)NC(=O)[C@H](CC(C)C)NC(=O)[C@H](CC(C)C)NC(=O)[C@H](CC(C)C)NC(=O)[C@@H](N)CC(C)C)C(=O)N[C@@H](CO)C(=O)O [Ncl_45] (H-LLLLDRLNQLESKMS-OH)
Property name: pIC50
Assay value: 5.08
//
Compound: CC[C@H](C)[C@H](NC(=O)[C@H](CCCNC(=N)N)NC(=O)[C@H](CCCNC(=N)N)NC(=O)[C@@H](NC(=O)[C@H](C)NC(=O)[C@H](CCCNC(=N)N)NC(=O)[C@H](CCCNC(=N)N)NC(=O)[C@H](Cc1ccc(O)cc1)NC(=O)[C@@H](N)Cc1ccc(O)cc1)[C@@H](C)O)C(=O)N[C@@H](CCCNC(=N)N)C(=O)NCC(=O)NCC(=O)N[C@@H](CC(=O)O)C(=O)NCC(=O)N[C@@H](CCCCN)C(=O)O [Ncl_P18] (H-YYRRATRRIRGGDGK-OH)
Property name: pIC50
Assay value: 6.14
